FYI, the data here is from patent US20200172491A1.

herbicidal activity on Matricaria inodora (visual rating vs untreated controls): recorded values
- Tested on: Matricaria inodora
- measurement-description: Pre-emergence herbicidal action
- Format: in vivo
- cond: 320 g/ha, scored after about 3 weeks, 100% = plants have died, 0% = like control plants
Hi! Could you send only the number? It should be in %, unit omitted.

*Q* # query: herbicidal activity on Matricaria inodora (visual rating vs untreated controls) | item `Cc1nn(C)c(-c2ccc(F)cc2Cl)c1C(=O)Nc1cc(Cl)ccc1F` | system: Matricaria inodora
*A* 100

Further cases:
*Q* Item: `Cc1nn(C)c(-c2ccc(F)cc2Cl)c1C(=O)Nc1ccccc1Cl` Test system: Matricaria inodora Read-out: herbicidal activity on Matricaria inodora (visual rating vs untreated controls) Value: ?
*A* 100

*Q* Quick check: herbicidal activity on Matricaria inodora (visual rating vs untreated controls) on Matricaria inodora, item `Cc1nn(C)c(-c2ccc(F)cc2Cl)c1C(=O)Nc1cncc(F)c1` ?
*A* 100

*Q* Param readout= herbicidal activity on Matricaria inodora (visual rating vs untreated controls); system= Matricaria inodora; entry= `Cc1nn(C)c(-c2ccc(F)cc2Cl)c1C(=O)Nc1cc(Cl)cc(Cl)c1` ; returns value.
*A* 100

*Q* Lookup: herbicidal activity on Matricaria inodora (visual rating vs untreated controls) / Matricaria inodora / `Cc1ccc(Cl)cc1NC(=O)c1c(C)nn(C)c1-c1ccc(F)cc1Cl`
*A* 100

*Q* // fetch Matricaria inodora herbicidal activity on Matricaria inodora (visual rating vs untreated controls) for `Cc1cccc(NC(=O)c2c(C)nn(C)c2-c2ccc(F)cc2Cl)c1`
*A* 100

*Q* # query: herbicidal activity on Matricaria inodora (visual rating vs untreated controls) | item Cc1nn(C)c(-c2ccc(F)cc2Cl)c1C(=O)Nc1cccc2c1C(C)OC2(C)C (stereo not drawn) | system: Matricaria inodora
*A* 100

*Q* Request body: readout herbicidal activity on Matricaria inodora (visual rating vs untreated controls), system Matricaria inodora, query `Cc1nn(C)c(-c2ccc(F)cc2Cl)c1C(=O)Nc1cc(Cl)ccc1Cl` . Return the value.
*A* 80

*Q* Entry `Cc1nn(C)c(-c2cc(F)ccc2Cl)c1C(=O)Nc1cccc(Cl)c1` , system Matricaria inodora: what herbicidal activity on Matricaria inodora (visual rating vs untreated controls) was measured?
*A* 90
